assayProcedure: chemical genetic growth profiling, strain panel (AID 1159580);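 note: tested at 20 µM; growth read once vehicle control cultures reached saturation at 30 °C; 1 = growth at the plate median or of vehicle wells; lower values mean less growth of the strain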
conditionSummary: S. cerevisiae deletion strains, growth OD, locus YEL003W, strain gim4, hits give low values
In all, about 5,500 compounds went through this assay and about 2,000 (36%) were called active. Roughly 18% stayed inconclusive and do not appear here. Some of the results follow.
readoutKind: normalized growth

**Query** Entry under review: C=C1C2CCC3(C)C(c4ccoc4)OC(=O)CC13OC1CC(OC(C)=O)C(C)(C)C(CC(=O)OC)C12C (centres undefined) . Reported normalized growth?
**Result** 1.01 (inactive)

**Query** Param item = Cc1ncc([N+](=O)[O-])n1CC(C)O (centres undefined) ; retrieve measured normalized growth.
**Result** 0.977 (inactive)

**Query** # normalized growth lookup, item CC(CCC(=O)O)[C@H]1CCC2C3CC[C@@H]4CCCC[C@]4(C)C3CC[C@@]21C (some centres undefined)
**Result** 1.01 (inactive)

**Query** Record request: normalized growth value, item CC(=O)N=c1sc(S(N)(=O)=O)nn1C
**Result** 1.01 (inactive)

// provenance: PubChem BioAssay AID1159580
